Parameter: MIC. Scope: all listed entries.
- Tested on: Staphylococcus aureus
- method_notes: Antibacterial activity against vancomycin-resistant Staphylococcus aureus AIS2006032 isolated from patients foot wound by broth microdilution method
- Assay type: functional
Value expressed in µg/mL; do not type the unit.

chem_smiles=CCCCCCCCCC(=O)N[C@@H](Cc1c[nH]c2ccccc12)C(=O)N[C@H](CC(N)=O)C(=O)N[C@@H](CC(=O)O)C(=O)N[C@@H]1C(=O)NCC(=O)N[C@@H](CCCN)C(=O)N[C@@H](CC(=O)O)C(=O)N[C@H](C)C(=O)N[C@@H](CC(=O)O)C(=O)NCC(=O)N[C@H](CO)C(=O)N[C@@H]([C@H](C)CC(=O)O)C(=O)N[C@@H](CC(=O)c2ccccc2N)C(=O)O[C@@H]1C experimental_readout=MIC quantitative_result=1

Next, consider the following compound.
State recorded MIC with Staphylococcus aureus, entry `CN[C@H](CC(C)C)C(=O)N[C@H]1C(=O)N[C@@H](CC(N)=O)C(=O)N[C@H]2C(=O)N[C@H]3C(=O)N[C@H](C(=O)N[C@H](C(=O)O)c4cc(O)cc(O)c4-c4cc3ccc4O)[C@H](O)c3ccc(c(Cl)c3)Oc3cc2cc(c3O[C@@H]2O[C@H](CO)[C@@H](O)[C@H](O)[C@H]2O[C@H]2C[C@](C)(N)[C@H](O)[C@H](C)O2)Oc2ccc(cc2Cl)[C@H]1O` , no comment. 1020

Provenance of the data: ChEMBL document CHEMBL1151471
